Protocol summary: TOX21_TRB_BLA_Antagonist_Followup_viability: Viability Assessment in the Tox21 Thyroid Hormone Receptor beta Antagonism Beta-lactamase (BLA) Follow-Up Assay (AID 2283961)
Results filed as inconclusive are left out. Calls of active or inactive are those of the source. The calls were made as follows: active = hit-call score of the fitted dose curve at least 0.9, where 1 is the maximum; inconclusive = response in the unintended direction; inactive = score below 0.9.
Valid outcomes are listed here; reply with one: active, inactive

CCC(COC(=O)c1cc(OC)c(OC)c(OC)c1)(c1ccccc1)N(C)C (stereo not drawn): inactive
CC[C@]1(O)CC[C@H]2[C@@H]3CCC4=CCCC[C@@H]4[C@H]3CC[C@@]21C: inactive

Query: What outcome does the record of this test show for `CCCCCCCCCCn1cc[n+](C)c1` ?
Result: active

###

Protocol summary: TOX21_p53_BLA_p3_viability: Viability Assessment in the Tox21 HCT-116 p53 Agonism Beta-lactamase Assay, Phase 3 (AID 2283593);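 also: cells exposed to compound for 16 h before reading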
Source text: TOX21_p53_BLA_p3 is a cell-based, single-readout assay that uses HCT116, a human intestinal cell line, […] in a 1536-well plate.TOX21_p53_BLA_p3_viability is an assay readout measuring cellular ATP content and detected with CellTiter-Glo Luciferase-coupled ATP quantitation.TOX21_p53_BLA_p3_viability used a type of viability reporter where loss-of-signal activity can be used to understand changes in the cell viability. […]
Results filed as inconclusive are left out. Activity calls are given as the source filed them. The calls were made as follows: active = hit-call score of the fitted dose curve at least 0.9, where 1 is the maximum; inconclusive = response in the unintended direction; inactive = score below 0.9.
Outcome field: choose from y for active, n for inactive

N#CC(C#N)=C(C#N)C#N: n

Query: How was `[CH3][Hg][Cl]` classified in this test?
Result: y

Query: Now the same for `CC[N+](=O)[O-]`
Result: n

Query: Same question, `Clc1ccc(CO/N=C(\Cn2ccnc2)c2ccc(Cl)cc2Cl)c(Cl)c1` this time
Result: n

Query: What about `CN(C)[C@H](Cc1ccccc1)c1ccccc1` ?
Result: y

###

Protocol summary: CCTE_Shafer_MEA_dev_network_spike_peak: CCTE's Neural Network Formation Assay for Mean Number of Electrodes in Network Spike, Shafer Lab (AID 2284049)
Active and inactive are the calls of the source. How the source made its calls: active means hit-call score of the fitted dose curve at least 0.9, where 1 is the maximum; inactive means score below 0.9.
Your answer must be one of the following: true (active), false (inactive)

For orientation, consider the following solved cases.
CC(=O)[O-].[Tl+]: false
CC1CCCC1.[C-]#[O+].[C-]#[O+].[C-]#[O+].[Mn]: false
CC1(C)C(C=C(Cl)Cl)C1C(=O)O[C@H](C#N)c1cccc(Oc2ccccc2)c1 (some centres undefined): true

API: the following record is the query input.
Query: What did this assay record as the result for `CCOP(=O)(OCC)SCSC(C)(C)C` ?
Result: true

###

Assayed target: human AMP-activated Protein Kinase, alpha 1 (AMPKa1), PRKAA1 (gene 5562)
Protocol summary: NVS_ENZ_hAMPKa1: NovaScreen (NVS) Enzymatic Assay for human AMP-activated Protein Kinase, alpha 1 (AMPKa1) (AID 2283130)
Results filed as inconclusive are left out. Active and inactive are the calls of the source. The calls were made as follows: active = hit-call score of the fitted dose curve at least 0.9, where 1 is the maximum; inconclusive = response in the unintended direction; inactive = score below 0.9.
Readout name: AC50

O=C(O)CCCCC(=O)O: inactive
O=C(O)C1(C(=O)Nc2ccc(Cl)cc2Cl)CC1: 7.12 µM (active)
O=C(O)c1ccccc1C(c1ccc(O)cc1)c1ccc(O)cc1: inactive
O=C(O)c1cccc(Oc2ccccc2)c1: inactive

###

Read-out: Interleukin-1 alpha (IL1a), IL1A (gene 3552)
Protocol summary: BSK_LPS_IL1a: BioMAP Diversity Plus: LPS Assay for Interleukin-1 alpha (IL1a) Biomarker Activity (AID 2283080)
Experimental conditions: primary human HUVEC with PBMC; actives raise or lower the signal
Active and inactive are the calls of the source. Rule for the calls: active = hit-call score of the fitted dose curve at least 0.9, where 1 is the maximum; inactive = score below 0.9.
Readout name: AC50

COc1ccc(CO)cc1: inactive
O=c1c2ccccc2c(=O)c2c1cc(Cl)c1[nH]c3c([nH]c12)c(Cl)cc1c(=O)c2ccccc2c(=O)c13: inactive
CC(C)COP(=O)(OCC(C)C)OCC(C)C: inactive
CCCOC(=O)c1ccccc1C(=O)OCCC: inactive
O=C1C(Cl)=C(Cl)C(=O)C(Cl)=C1Cl: 14 µM (active)

Give one value of AC50 per listed compound.
1. CC(C)CCCCCCCOC(=O)c1ccccc1C(=O)OCCCCCCCC(C)C
2. COC(C)(C)CCC[C@H](C)C/C=C/C(C)=C/C(=O)OC(C)C
3. O=[N+]([O-])C=Cc1ccccc1
4. O=C(CCl)c1ccccc1
5. CC1(C)[C@H](C(=O)O[C@H](C#N)c2cccc(Oc3ccccc3)c2)[C@@H]1C=C(Br)Br
6. O=c1[nH]c(Cl)c(Cl)cc1Cl
7. Oc1cc(Cl)ccc1Cl

Result:
inactive
36.4 µM (active)
8.05 µM (active)
3.72 µM (active)
inactive
inactive
inactive

###

Assayed target: Norway rat Vesicular Monoamine Transporter (VMAT2), neurotransmitter transporter, Slc18a2 (gene 25549)
Protocol summary: NVS_TR_rVMAT2: NovaScreen (NVS) Transporter Assay for Norway rat Vesicular Monoamine Transporter (VMAT2), neurotransmitter transporter (AID 2283376);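 also: actives lower the bound radioligand signal below the DMSO level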
Records with an inconclusive call do not appear. The source made the active and inactive calls. Rule for the calls: active = hit-call score of the fitted dose curve at least 0.9, where 1 is the maximum; inconclusive = response in the unintended direction; inactive = score below 0.9.
The reply should name one outcome from True (active), False (inactive)

Query: Give the logged outcome of this assay for the following compound: `Clc1ccc(Nc2nnc(Cc3ccncc3)c3ccccc23)cc1`
Result: True

Query: Moving on to `OCCC(F)(F)C(F)(F)C(F)(F)C(F)(F)C(F)(F)C(F)(F)F`
Result: False

Query: Item: `CCN(CCC#N)c1ccc(N=Nc2ccc([N+](=O)[O-])cc2)cc1`
Result: False

Query: Entry CCC(C)N(C)C(=O)c1cc2ccccc2c(-c2ccccc2Cl)n1 (stereo unspecified) please
Result: True

Query: Try CCCCC(CC)COC(=O)c1ccccc1C(=O)O (stereo unspecified) next.
Result: False

Query: Same thing, different compound: `Cc1[nH]cnc1C[C@H]1CCc2c(C)c3ccccc3n2C1=O`
Result: True

###

Protocol summary: BSK_3C_VCAM1: BioMAP Diversity Plus: 3C Assay for Vascular cell adhesion molecule 1 (VCAM1) Biomarker Activity (AID 2282999)
Experimental conditions: BioMAP 3C HUVEC, VCAM1 ELISA, cytokine-stimulated; actives raise or lower the signal
Active and inactive are the calls of the source. Rule for the calls: active = hit-call score of the fitted dose curve at least 0.9, where 1 is the maximum; inactive = score below 0.9.
// allowed return values: active, inactive

CC(C)(C)C(=O)CCl: active
O=C1C(Cl)=C(Cl)C(=O)C(Cl)=C1Cl: active
Cc1ccc(OP(=O)(Oc2ccc(C)cc2)Oc2ccc(C)cc2)cc1 (tested in a mixture with another compound): inactive
CC(C)COP(=O)(OCC(C)C)OCC(C)C: inactive
O=[N+]([O-])c1ccc(Cl)cc1: inactive

Query: Per the records of this test, what outcome belongs to `C=CCN(CC=C)C(=O)C(Cl)Cl` ?
Result: inactive

Query: What would you report for `O=C(CCl)c1ccccc1` ?
Result: active

Query: Please do the same for `Oc1cc(Cl)ccc1Cl` as well.
Result: inactive

###

Read-out: Monocyte Chemoattractant Protein-1 (MCP1), CCL2 (gene 6347)
Protocol summary: BSK_LPS_MCP1: BioMAP Diversity Plus: LPS Assay for Monocyte Chemoattractant Protein-1 (MCP1) Biomarker Activity (AID 2283081);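 as to AC50: co-culture stimulated with LPS; secreted MCP-1 protein quantified by ELISA in culture supernatant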
Experimental conditions: primary human HUVEC with PBMC; actives raise or lower the signal
Activity calls are given as the source filed them. The calls were made as follows: active = hit-call score of the fitted dose curve at least 0.9, where 1 is the maximum; inactive = score below 0.9.
Readout name: AC50

Field: example entries. Status: answers known.
CC(C)CCCCCCCOP(=O)(Oc1ccccc1)Oc1ccccc1: 20 µM (active)
CC(C)CCCCCCCOC(=O)c1ccccc1C(=O)OCCCCCCCC(C)C: inactive
CCCCCCCCCCCC#N: inactive
Nc1ccc(-c2ccc(N)c(N)c2)cc1N: inactive
N#CCCCCC#N: inactive

Report AC50 for each item below.
1. CC(C)(C)C(O)C(Oc1ccc(-c2ccccc2)cc1)n1cncn1 (stereo unspecified)
2. COc1ccc(CO)cc1

Result:
["inactive", "inactive"]

Please state AC50 for every compound in the list that follows.
1. O=C(CCl)c1ccccc1
2. O=[N+]([O-])O
3. CC(C)(c1cc(Cl)c(O)c(Cl)c1)c1cc(Cl)c(O)c(Cl)c1
4. CCC(C)c1cc([N+](=O)[O-])cc([N+](=O)[O-])c1OC(=O)C=C(C)C (stereo unspecified)

Result:
1. 6.34 µM (active)
2. inactive
3. 31.3 µM (active)
4. 13.4 µM (active)

###

Protocol summary: CCTE_Shafer_MEA_dev_mutual_information_norm: CCTE's Neural Network Formation Assay for Mutual Information Normalization, Shafer Lab (AID 2284091)
Activity calls are given as the source filed them. How the source made its calls: active means hit-call score of the fitted dose curve at least 0.9, where 1 is the maximum; inactive means score below 0.9.
Field 'call' accepts yes (1) for active, no (0) for inactive

[Cd+2].[Cl-].[Cl-]: yes (1)

Query: Entry `CC(=O)[O-].[Tl+]` : call = ?
Result: no (0)

Query: Same read-out for CC1(C)C(C=C(Cl)Cl)C1C(=O)O[C@H](C#N)c1cccc(Oc2ccccc2)c1 (stereo partly specified) ?
Result: yes (1)

###

Read-out: Interleukin-1 alpha (IL1a), IL1A (gene 3552)
Protocol summary: BSK_BE3C_IL1a: BioMAP Diversity Plus: BE3C Assay for Interleukin-1 alpha (IL1a) Biomarker Activity (AID 2283016)
Experimental conditions: primary human bronchial epithelial cells; actives raise or lower the signal
The source made the active and inactive calls. How the source made its calls: active means hit-call score of the fitted dose curve at least 0.9, where 1 is the maximum; inactive means score below 0.9.
I would appreciate it if you answered using one of these outcomes: active, inactive

CC(C)CCCCCCCOC(=O)c1ccccc1C(=O)OCCCCCCCC(C)C: inactive
O=[N+]([O-])c1ccc(Cl)cc1: inactive
CCC(C)c1cc([N+](=O)[O-])cc([N+](=O)[O-])c1OC(=O)C=C(C)C (configuration not stated): active
O=C1C(Cl)=C(Cl)C(=O)C(Cl)=C1Cl: active
CC(C)COP(=O)(OCC(C)C)OCC(C)C: inactive

Query: Tell me the recorded outcome of this test for `O=[N+]([O-])O` .
Result: inactive

Query: Repeat for the following molecule: `CNC(=O)Oc1cc(C)c(SC)c(C)c1`
Result: inactive
